Test system: OVCAR-4
PROCEDURE_SUMMARY: Growth inhibition of human OVCAR4 cells after 48 hrs by sulforhodamine B assay
Assay type: functional
CONDITION_CONTEXT: OVCAR-4, 48 h
ENDPOINT_NAME: GI50 (µM)
// units = µM; emit number, no label

| SMILES | ENDPOINT_NAME | UNITS_OF_MEASURE | REPORTED |
| --- | --- | --- | --- |
| CN(C)/C=C/C(=O)c1nn(-c2ccccc2)c(-c2ccccc2)c1C#N | GI50 | µM | 63.8 |
| N#Cc1c(-c2nnc(-c3nn(-c4ccccc4)c(-c4ccccc4)c3C#N)c3nn(-c4ccccc4)cc23)nn(-c2ccccc2)c1-c1ccccc1 | GI50 | µM | 7.46 |
| N#Cc1c(-c2nnc(-c3nn(-c4ccccc4)c(-c4ccccc4)c3C#N)c3nn(-c4ccc(Cl)cc4)cc23)nn(-c2ccccc2)c1-c1ccccc1 | GI50 | µM | 43.8 |

Exam item: Which GI50 value is on record for N#Cc1c(-c2nnc(-c3ccccc3)c3cn(-c4ccccc4)nc23)nn(-c2ccccc2)c1-c1ccccc1 ?
Marked response: 63

====

Tested on: OVCAR-3
PROCEDURE_SUMMARY: Growth inhibition of human OVCAR3 cells after 48 hrs by sulforhodamine B assay
Type: functional
CONDITION_CONTEXT: OVCAR-3, 48 h
GI50 listing for selected compounds.
The answer is to be given in µM; state only the numeric part.

| SMILES | GI50 [µM] |
| --- | --- |
| CCOC(=O)c1nn(-c2ccc(C)cc2)cc1C(=O)c1nn(-c2ccccc2)c(-c2ccccc2)c1C#N | 91.8 |
| N#Cc1ccc(C(c2ccc(C#N)cc2)n2cncn2)cc1 | 5.87 |
| N#Cc1c(-c2nnc(-c3nn(-c4ccccc4)c(-c4ccccc4)c3C#N)c3nn(-c4ccc(Cl)cc4)cc23)nn(-c2ccccc2)c1-c1ccccc1 | 95.8 |

Exam item: Query the reported GI50 for OVCAR-3; item: N#Cc1c(-c2nnc(O)c3nn(-c4ccc(Cl)cc4)cc23)nn(-c2ccccc2)c1-c1ccccc1
Marked response: 33.4

Exam item: Thanks! And CN(C)/C=C/C(=O)c1nn(-c2ccccc2)c(-c2ccccc2)c1C#N ?
Marked response: 98.8

====

System: T47D
PROCEDURE_SUMMARY: Growth inhibition of human T47D cells after 48 hrs by sulforhodamine B assay
Format: functional
Listed compounds paired with reported GI50

Example results:
| SMILES | REPORTED |
| --- | --- |
| CCOC(=O)c1nn(-c2ccc(Cl)cc2)cc1C(=O)c1nn(-c2ccccc2)c(-c2ccccc2)c1C#N | > 100 µM |
| N#Cc1c(-c2nnc(-c3nn(-c4ccccc4)c(-c4ccccc4)c3C#N)c3nn(-c4ccccc4)cc23)nn(-c2ccccc2)c1-c1ccccc1 | 81 µM |

Could you now consider this next compound?
Exam item: Would you kindly share the measured GI50 for CCOC(=O)c1nn(-c2ccc(C)cc2)cc1C(=O)c1nn(-c2ccccc2)c(-c2ccccc2)c1C#N ?
Marked response: > 100 µM
